system: Cytochrome P450 2C9 (Homo sapiens) (UniProt P11712)
Sequence (P11712 whole entry, looked up): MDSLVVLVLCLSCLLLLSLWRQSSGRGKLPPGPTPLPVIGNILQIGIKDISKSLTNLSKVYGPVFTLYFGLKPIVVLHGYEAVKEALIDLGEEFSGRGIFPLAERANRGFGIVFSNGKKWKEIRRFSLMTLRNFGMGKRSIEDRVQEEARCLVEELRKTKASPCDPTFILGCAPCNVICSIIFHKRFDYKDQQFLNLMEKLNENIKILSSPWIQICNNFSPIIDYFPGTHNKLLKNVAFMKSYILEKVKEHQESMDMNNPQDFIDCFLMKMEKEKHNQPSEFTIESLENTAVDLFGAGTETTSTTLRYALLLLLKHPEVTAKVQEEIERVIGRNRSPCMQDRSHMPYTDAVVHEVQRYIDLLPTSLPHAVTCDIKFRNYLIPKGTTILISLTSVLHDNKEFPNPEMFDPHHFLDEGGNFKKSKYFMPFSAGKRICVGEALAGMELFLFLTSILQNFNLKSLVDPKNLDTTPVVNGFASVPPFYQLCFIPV
experimental protocol: Cytochrome panel assay with activity outcomes
measurement parameters: recombinant CYP, pro-luciferin dealkylation, luminescence, p450-cyp2c9; series mostly up to 57.1 µM
In all, about 16,000 compounds went through this assay and about 4,000 (25%) were called active. Another 26% or so got no clear call; they are omitted. Calls come from the whole dose curve; as a rule, active = well fitted curve in the direction sought with a large enough effect; inconclusive = small, poorly fitted or top-dose-only effect, or effect the other way; inactive = no such curve, though single readings can be large or run the other way. Only a sample is shown.
Possible outcomes: active, inactive

molecule	system	label
O=c1c(-c2nc3ccccc3s2)cccn1Cc1ccccc1	Cytochrome P450 2C9 (Homo sapiens) (UniProt P11712)	active
c1cc(CN2CCCCC2)cc(OCCCNc2nc3ccccc3s2)c1	Cytochrome P450 2C9 (Homo sapiens) (UniProt P11712)	inactive
COC(Cc1nnc(SC)n1-c1ccc(Cl)cc1)OC	Cytochrome P450 2C9 (Homo sapiens) (UniProt P11712)	inactive
O=S(Cc1ccc(Br)cc1)Cc1nnc(SCc2ccc(Cl)cc2)n1-c1ccccc1 (stereo unspecified)	Cytochrome P450 2C9 (Homo sapiens) (UniProt P11712)	active
Cc1ccc(-c2ccc(CCC(=O)O)o2)cc1	Cytochrome P450 2C9 (Homo sapiens) (UniProt P11712)	inactive
Brc1ccc2ncnc(Nc3cccc4ccccc34)c2c1	Cytochrome P450 2C9 (Homo sapiens) (UniProt P11712)	active
